Tested on: HL-1 cardiomyocytes, H2O2 injury, ATP luminescence, 2 h
Test: H2O2-induced HL-1 cell death suppression – ATP luminescence, dose response (AID 602215);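 further: potency is for protection so actives raise ATP signal against peroxide damage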
Activity calls are given as the source filed them.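 How the source made its calls: active means IC50 of 20 µM or lower; inactive means the rest.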
Parameter call: string, one of active, inactive

Known results for compounds:
>  <STRUCTURE_STRING>
COc1cc(-c2cc(NC(C)=O)c3ncc(-c4ccc(F)cc4)n3c2)cc(OC)c1OC

>  <CLASSIFICATION>
inactive

$$$$
>  <STRUCTURE_STRING>
COc1cc2[nH]c(=O)n3nc(-c4ccccc4)nc3c2cc1OC

>  <CLASSIFICATION>
inactive

$$$$
>  <STRUCTURE_STRING>
CCCNC(=O)c1ccc(N2CCC3(CC2)CC(c2ccccc2)=NO3)c(NC(=O)c2ccco2)c1

>  <CLASSIFICATION>
active

$$$$

stdin: How was CC(=O)c1ccc(-c2cnc3c(NC=O)cc(-c4cccc(C(=O)N(C)C)c4)cn23)cc1 classified in this test?
stdout: active

stdin: Record: COc1cccc(-c2cnc3c(NC=O)cc(-c4cc(OC)c(OC)c(OC)c4)cn23)c1
stdout: inactive

stdin: Next entry: COc1cc(CN2C[C@@H](CO)O[C@@H](n3cnc4c(Nc5ccccc5)ncnc43)C2)cc(OC)c1OC
stdout: inactive

stdin: Now consider O=C(C(=O)N(Cc1ccccc1)Cc1ccccc1)c1c(-c2ccccc2)[nH]c2ccccc12 .
stdout: inactive

stdin: How about this compound: CCn1nc(C(=O)Nc2nc(-c3ccccn3)cs2)c2ccccc2c1=O
stdout: inactive

stdin: Let us now turn to COc1ccc(-c2nn(-c3ccccc3)cc2C(=O)Nc2nccs2)cc1
stdout: active

---

Test system: HL-1 cardiomyocytes, H2O2 injury, ATP luminescence, 2 h
Assay: H2O2-induced HL-1 cell death suppression – ATP luminescence, dose response (AID 602215);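 further: potency is for protection so actives raise ATP signal against peroxide damage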
The source made the active and inactive calls.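 How the source made its calls: active means IC50 of 20 µM or lower; inactive means the rest.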
OBSERVATION_TYPE: IC50

>  <STRUCTURE_STRING>
Brc1cc2c(cc1/C=N/Nc1nc(N3CCCC3)nc(N3CCOCC3)n1)OCO2

>  <IC50>
10.9 µM

$$$$

stdin: What does the data say about its IC50? Entry: O=C(N/N=C/c1ccccn1)c1cc(-c2cccc3ccccc23)n[nH]1
stdout: > 79 µM (inactive)

stdin: Now the same for COc1ccc(-c2csc(NC(=O)c3ccc(OCC(=O)N4CCOCC4)c(OC)c3)n2)cc1OC
stdout: 12.3 µM

stdin: Now consider CC(C)(C)NC(=O)COC(=O)c1c2c(nc3ccccc13)CCC2 and answer again.
stdout: 49.1 µM (inactive)
